- test protocol: Critical micelle concentration (CMC) by fluorescent dye uptake
- Type: physicochemical
measured parameter: CMC (%)
Unit % implied. Number only.

Given CCCCCCCCCCC(=O)NCC(CNC(=O)CCCCCCCCCC)(CO[C@H]1OC(CO)[C@H](O[C@@H]2OC(CO)[C@H](O)C(O)[C@H]2O)C(O)[C@H]1O)CO[C@H]1OC(CO)[C@H](O[C@@H]2OC(CO)[C@H](O)C(O)[C@H]2O)C(O)[C@H]1O (some centres unmarked) [MNG-1] , respond with its CMC (%).
0.0019

Given CCCCCCCCCCOCC(COCCCCCCCCCC)(CO[C@H]1OC(CO)[C@H](O[C@@H]2OC(CO)[C@H](O)C(O)[C@H]2O)C(O)[C@H]1O)CO[C@H]1OC(CO)[C@H](O[C@@H]2OC(CO)[C@H](O)C(O)[C@H]2O)C(O)[C@H]1O (some centres unmarked) [MNG-6] , respond with its CMC (%).
0.00096

Given CC(C)(C)C1CCC(C(=O)NCC(CNC(=O)C2CCC(C(C)(C)C)CC2)(COC2OC(CO)C(OC3OC(CO)C(O)C(O)C3O)C(O)C2O)COC2OC(CO)C(OC3OC(CO)C(O)C(O)C3O)C(O)C2O)CC1 (centres unmarked) [MNG-26] , respond with its CMC (%).
0.0134

Given CCCCCCCC(=O)NCC(CNC(=O)C(C1CCCCC1)C1CCCCC1)(COC1OC(CO)C(OC2OC(CO)C(O)C(O)C2O)C(O)C1O)COC1OC(CO)C(OC2OC(CO)C(O)C(O)C2O)C(O)C1O (centres unmarked) [MNG-21] , respond with its CMC (%).
0.0268

Given CCCCCCCCCCCCC(=O)NCC(CNC(=O)CCCCCCCC)(COC1OC(CO)C(OC2OC(CO)C(O)C(O)C2O)C(O)C1O)COC1OC(CO)C(OC2OC(CO)C(O)C(O)C2O)C(O)C1O (centres unmarked) [MNG-17] , respond with its CMC (%).
0.002

Given CCCCC(CCCC)OCC(COC(CCCC)CCCC)(COC1OC(CO)C(OC2OC(CO)C(O)C(O)C2O)C(O)C1O)COC1OC(CO)C(OC2OC(CO)C(O)C(O)C2O)C(O)C1O (centres unmarked) [MNG-33] , respond with its CMC (%).
0.0095

Given CCCCCCCCCCCCCCCC(=O)NCC(CNC(=O)CCCCC)(COC1OC(CO)C(OC2OC(CO)C(O)C(O)C2O)C(O)C1O)COC1OC(CO)C(OC2OC(CO)C(O)C(O)C2O)C(O)C1O (centres unmarked) [MNG-16] , respond with its CMC (%).
0.0026

Given CCCCCCCCCCCCCCC(=O)NCC(CNC(=O)CCCCCC)(COC1OC(CO)C(OC2OC(CO)C(O)C(O)C2O)C(O)C1O)COC1OC(CO)C(OC2OC(CO)C(O)C(O)C2O)C(O)C1O (centres unmarked) [MNG-18] , respond with its CMC (%).
0.0027

Given CCCCCCCC(CCCCCCC)(COC1OC(CO)C(O)C(O)C1O)COC1OC(CO)C(O)C(O)C1O (centres unmarked) [GNG-9] , respond with its CMC (%).
0.0066

Given O=C(CCCC1CCCCC1)NCC(CNC(=O)CCCC1CCCCC1)(COC1OC(CO)C(OC2OC(CO)C(O)C(O)C2O)C(O)C1O)COC1OC(CO)C(OC2OC(CO)C(O)C(O)C2O)C(O)C1O (centres unmarked) [MNG-9] , respond with its CMC (%).
0.043

Given CCCCCCCCCCCC(=O)NCC(CNC(=O)CCCCCCCCCCC)(COC1OC(CO)C(OC2OC(CO)C(O)C(O)C2O)C(O)C1O)COC1OC(CO)C(OC2OC(CO)C(O)C(O)C2O)C(O)C1O (centres unmarked) [MNG-27] , respond with its CMC (%).
0.0009

The reported numbers originate from patent US20130324707A1.
